Reported self-cleavage values are given for each entry in this list.
B1: HDV Ribozyme (parent)
chain: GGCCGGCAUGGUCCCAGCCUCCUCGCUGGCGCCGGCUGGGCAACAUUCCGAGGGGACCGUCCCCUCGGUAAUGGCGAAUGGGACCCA

Variants of: B1
assay-remarks: self-cleavage, relative activity (ratio to wild type); higher = more cleavage; co-transcriptional
quantity: self-cleavage

[[record]]
sequence_chain = "GGCCGCCAUGGUCCCAGCCUCCUCGCUGGCGCCGGCUGGGCAACAUUCCGAGGAGACCGUCCCCUCGGUAAUGGCGAAUGGGACCCA [G6C G54A]"
result = 0.415

[[record]]
sequence_chain = "GGCCGGCAUGGUCCCAGCCUCCUCACUGGCGCCGGCUGGGCAACAUUCCGAGGGGACCGUCCCCUCGGUAAUGGCGAAUGGGAGCCA [G25A C84G]"
result = 0.17

[[record]]
sequence_chain = "GGCCGGCAUGGUCCCAGCCUCCUCGCUGGCGCCGGCUGGUCAACAUUCCGACGGGACCGUCCCCUCGGUAAUGGCGAAUGGGACCCA [G40U G52C]"
result = 0.891

[[record]]
sequence_chain = "GGCCGGCAUGGUCCCAGUCUCUUCGCUGGCGCCGGCUGGGCAACAUUCCGAGGGGACCGUCCCCUCGGUAAUGGCGAAUGGGACCCA [C18U C22U]"
result = 0.121

[[record]]
sequence_chain = "GGCCGGCAUGGUCCCAGCCUCCUCGCUGGCGCCGCCUGGGCAACAUUCCGAGGGGACCGUCCCAUCGGUAAUGGCGAAUGGGACCCA [G35C C64A]"
result = 0.113

[[record]]
sequence_chain = "GGCCGGCAUGGUCGCAGCCUCAUCGCUGGCGCCGGCUGGGCAACAUUCCGAGGGGACCGUCCCCUCGGUAAUGGCGAAUGGGACCCA [C14G C22A]"
result = 0

[[record]]
sequence_chain = "GGCCGGCAUGGUCCCAGCCUCCUCGCUGGCGCCGGCUGGCCAACAUUCCGAGGGGACCGUCCCCUCGGUAAUGGUGAAUGGGACCCA [G40C C75U]"
result = 0.0652

[[record]]
sequence_chain = "GGCCGGCAUGGUCCCAGCCUCCUCGCUCGCGCCGGCCGGGCAACAUUCCGAGGGGACCGUCCCCUCGGUAAUGGCGAAUGGGACCCA [G28C U37C]"
result = 0.101

[[record]]
sequence_chain = "GGCCGGCAUGGUCCCAGCCGCCUCGCUGGCGCCGGCUGGGCAACAUUCCGAGGGGACCGUCCCCUCGGUAAUGGCGAAUGGGAGCCA [U20G C84G]"
result = 0.119

[[record]]
sequence_chain = "CGCCGGCAUGGUCCCAGCCUCCUCGCUGGCGCCGGCUGGGCAACAUUCCGAGGGGACCGUCCCCUCGGUAAUGGCAAAUGGGACCCA [G1C G76A]"
result = 0.26

[[record]]
sequence_chain = "GGCCGGCAUGGUCCCAGCCUCCUCGCUGGCGCCGGCUGGGCAACAUUCCGAGGGGACCGUACCCUCGGUGAUGGCGAAUGGGACCCA [C61A A70G]"
result = 0.812

[[record]]
sequence_chain = "GGCCGGCAUGGUCCCAGUCUACUCGCUGGCGCCGGCUGGGCAACAUUCCGAGGGGACCGUCCCCUCGGUAAUGGCGAAUGGGACCCA [C18U C21A]"
result = 0.115

[[record]]
sequence_chain = "GGCCGGCAUGGUCGCAGCCUCCUCGCUGGCGCCGGCUGGGCAACAUUCCGAGGGGACCGUCCCCUCGGUAAUGGCGAAUGGGUCCCA [C14G A83U]"
result = 0.289

[[record]]
sequence_chain = "GGCCGGCAUGGUCCCAGCCUCCUCGCUGGCUCCGGCUGGGCAACAUUCCCAGGGGACCGUCCCCUCGGUAAUGGCGAAUGGGACCCA [G31U G50C]"
result = 0.237

[[record]]
sequence_chain = "GGCCGGCAUUGUCCCAGCCUCCUCGCUGGCGCCGGCUGGGCAACAUUCCGAGGGGACCGUCCCCUCGGUAAUAGCGAAUGGGACCCA [G10U G73A]"
result = 0.235

[[record]]
sequence_chain = "GGCCGGCAUGGUCCCAGCCUCCUCGCUGGCGCCGACUGGGCAACAUUCCGAGGGGACCCUCCCCUCGGUAAUGGCGAAUGGGACCCA [G35A G59C]"
result = 0.61

[[record]]
sequence_chain = "GGCCGGCAUGGUCCCAGCCUCCUCGCUGGCGCCGGCUGGGCAACAUUCCGAGGGGACCGUACCCUCGGUAAUGGCGAAUGGGACCUA [C61A C86U]"
result = 1.01

[[record]]
sequence_chain = "GGCCGGCAUGGUCCCAGUCUCCUCGCUGGCGCCGGCUGGGCAACAUUCCGAGGGGACCGUCCCCUCGGGAAUGGCGAAUGGGACCCA [C18U U69G]"
result = 0.453

[[record]]
sequence_chain = "GGCCGGCAUGGUCCCAGCCUCCUCGCUGGCGCCGGCUGGGCAUCAUUCCGAGGGGACCGUCCCCUCGGUGAUGGCGAAUGGGACCCA [A43U A70G]"
result = 1.05

[[record]]
sequence_chain = "GGGCGGCAUGUUCCCAGCCUCCUCGCUGGCGCCGGCUGGGCAACAUUCCGAGGGGACCGUCCCCUCGGUAAUGGCGAAUGGGACCCA [C3G G11U]"
result = 0.0683

[[record]]
sequence_chain = "GGCCGGCAUGGUCCCAGCCUUCUCGCUGACGCCGGCUGGGCAACAUUCCGAGGGGACCGUCCCCUCGGUAAUGGCGAAUGGGACCCA [C21U G29A]"
result = 0.0683

[[record]]
sequence_chain = "GCCCGGCAUGGUCCCAGCCUCCUCGCUGGCGCCGGCUGGGCAACAUUCCGAGGGGACCAUCCCCUCGGUAAUGGCGAAUGGGACCCA [G2C G59A]"
result = 0.0193

[[record]]
sequence_chain = "GGCCGGCAUGGUCCCAGCCUCCUCGCUGGCGCAGGCUGGGCAACAUUCCGAGGGGACCGUCCCCUCGGUAAUGGAGAAUGGGACCCA [C33A C75A]"
result = 0.122

[[record]]
sequence_chain = "GGCCGGCAUGGUCCCAGCCUCCUCGCUGGCGCCAGAUGGGCAACAUUCCGAGGGGACCGUCCCCUCGGUAAUGGCGAAUGGGACCCA [G34A C36A]"
result = 0.0978

[[record]]
sequence_chain = "GGCCGGCAUGGUCUCAGCCUCCUCGCUGGCGCCGGCUGGGCAACAUUCCGAGGGGACCGUCCCCUCGGUAAUGGCGAAUUGGACCCA [C14U G80U]"
result = 0.4

[[record]]
sequence_chain = "GGACGGCAUGGUACCAGCCUCCUCGCUGGCGCCGGCUGGGCAACAUUCCGAGGGGACCGUCCCCUCGGUAAUGGCGAAUGGGACCCA [C3A C13A]"
result = 0.0329

[[record]]
sequence_chain = "GGCCGGCAUGGUCCCAGCCUCCUCGCUGGCGCCGGCUGGGCAACAUUCCGAGGGGAACGUCCCCUCGGAAAUGGCGAAUGGGACCCA [C57A U69A]"
result = 0.969

[[record]]
sequence_chain = "GGCCGGCAUGGUCCCAGCCUCCUCGCUGGCGCCGGCUGGGCAACAUUCCGAGGGGACCGUCCCCUCGGUAAUGGCGAAGGGGUCCCA [U79G A83U]"
result = 0.122

[[record]]
sequence_chain = "GGCCGGCAUGGUCCCAGCCUCCUCGCUGGCGCCGGCUGGGCAACAGUCCGAGGGGACCGUCCCCUCGGUAAUGGCGAAUGGGGCCCA [U46G A83G]"
result = 0.746

[[record]]
sequence_chain = "GGCCGGCAUGGUCCCAGCCUCCUCGCUGGCGCCGGCUGGGCAACAUUCCGAGGGGCCCGUCCCCGCGGUAAUGGCGAAUGGGACCCA [A56C U65G]"
result = 0.985

